Reference for the values: patent US8802597B2

A collection of compounds and their measured Plant response rating, Oat, Wild
Tested on: wild oat (Avena fatua)
assay: Test B postemergence
Format: in vivo
condition: 500 g ai/ha, scale 0 to 100
# respond with the number and nothing more

- compound: "CCOC(=O)c1nc(C2CC2)nc(NNC(C)=O)c1Br"
  quantitativeReadout: 20
- compound: "CCOC(=O)C(C)c1nc(C2CC2)nc(N)c1Br (stereo not shown)"
  quantitativeReadout: 30

Query :: // query Plant response rating, Oat, Wild value for entry CC(C)OC(=O)c1nc(C2CC2)nc(N)c1Br
Result :: 70

Query :: Give the measured Plant response rating, Oat, Wild of CCOC(=O)c1nc(C2CC2)nc(N=CN(C)C)c1Br .
Result :: 60

Query :: // query Plant response rating, Oat, Wild value for entry CCCOC(=O)c1nc(C2CC2)nc(N)c1Br
Result :: 70

Query :: Give the measured Plant response rating, Oat, Wild of CCOC(=O)c1nc(C2CC2)nc(NOCC(=O)O)c1Br .
Result :: 20

Query :: Name the reported Plant response rating, Oat, Wild value associated with the compound CCOC(=O)c1nc(C2CC2)nc(NOC)c1Br
Result :: 20

----------
Reported Plant response rating, Pigweed values for a set of molecules
Tested on: pigweed (Amaranthus retroflexus)
assay: Test B pre/postemergence
Assay type: in vivo
condition: Postemergence, 500 g ai/ha; scale 0 to 100
Enter the number alone.

Query :: Would you mind telling me what Plant response rating, Pigweed value was observed for COC(=O)c1nc(C2CC2C)nc(N)c1Br (centres unmarked) [Compound 28] ?
Result :: 90

Query :: Which Plant response rating, Pigweed reading was recorded for the molecule COCc1nc(C2CC2)nc(N)c1Br [Compound 11] ?
Result :: 90

----------
Here, each record is paired with measured Plant response rating, Cocklebur data.
Test system: cocklebur (Xanthium strumarium)
assay: Test C pre/postemergence
Assay type: in vivo
condition: Preemergence, 16 g ai/ha; scale 0 to 100, 0 no effect, 100 complete control
Note: the reply should be a number with no unit written.

Examples with their reported Plant response rating, Cocklebur follow.
- compoundStructure: "Nc1nc(C2CC2)nc(C(=O)[O-])c1Cl.[Na+]"
  Plant response rating, Cocklebur: 55
- compoundStructure: "Nc1nc(-c2ccc(Cl)cc2)nc(C(=O)[O-])c1Cl.[Na+]"
  Plant response rating, Cocklebur: 0

Query :: Looking for the measured Plant response rating, Cocklebur of CCCCOC(=O)c1nc(C2CC2)nc(N)c1Cl , can you help?
Result :: 65

----------
Test system: giant foxtail (Setaria faberii)
assay: Test B pre/postemergence
Type: in vivo
condition: Setaria faberi, post-emergence, Postemergence, 125 g ai/ha; scale 0 to 100 (0 no effect, 100 complete control); read-out: Foxtail, Giant plant response rating
measuredAttribute: pest or weed control at 125 g/ha (%)
Lab book: enter the figure in %, no units written.

Worked examples, 3 molecules total:
- molecule: "CNc1nc(C2CC2)nc(C(=O)OC)c1Cl [Compound 79]"
  target: "giant foxtail (Setaria faberii)"
  measuredAttribute: "pest or weed control at 125 g/ha"
  quantitativeReadout: 70
- molecule: "Nc1nc(C2CC2)nc(C(=O)OCc2ccccc2)c1Cl [Compound 78]"
  target: "giant foxtail (Setaria faberii)"
  measuredAttribute: "pest or weed control at 125 g/ha"
  quantitativeReadout: 70
- molecule: "CCOC(=O)c1nc(C2CC2)nc(NN)c1Br [Compound 42]"
  target: "giant foxtail (Setaria faberii)"
  measuredAttribute: "pest or weed control at 125 g/ha"
  quantitativeReadout: 0

Query :: What value of pest or weed control at 125 g/ha has been reported for the following molecule? CCOC(=O)c1nc(C(C)(C)C)nc(N)c1Br [Compound 36]
Result :: 0

Query :: Using the record for COC(=O)c1nc(-c2ccccc2)nc(N)c1Br [Compound 23] , report its pest or weed control at 125 g/ha.
Result :: 0
